The measured values listed here are drawn from patent US11883407B2.

Assay: clinical
Conditions: human, plasma, oral, 3 mg
observation-type: concentration at 24 h (ng/mL)

[[record]]
smiles_input = "C[C@@H](Cn1c(=O)[nH]/c(=N\\c2ccc(Oc3ccccn3)cc2)n(Cc2ccc(Cl)cc2)c1=O)C(=O)O"
readout_value = 15.2


====

Assay: clinical
Conditions: human, plasma, oral, 100 mg
observation-type: concentration at 24 h (ng/mL)

[[record]]
smiles_input = "C[C@@H](Cn1c(=O)[nH]/c(=N\\c2ccc(Oc3ccccn3)cc2)n(Cc2ccc(Cl)cc2)c1=O)C(=O)O"
readout_value = 424


====

Molecular target: human P2X2/3 receptor (Homo sapiens, UniProt P56373+Q9UBL9)
Sequence (Q9UBL9 1-471): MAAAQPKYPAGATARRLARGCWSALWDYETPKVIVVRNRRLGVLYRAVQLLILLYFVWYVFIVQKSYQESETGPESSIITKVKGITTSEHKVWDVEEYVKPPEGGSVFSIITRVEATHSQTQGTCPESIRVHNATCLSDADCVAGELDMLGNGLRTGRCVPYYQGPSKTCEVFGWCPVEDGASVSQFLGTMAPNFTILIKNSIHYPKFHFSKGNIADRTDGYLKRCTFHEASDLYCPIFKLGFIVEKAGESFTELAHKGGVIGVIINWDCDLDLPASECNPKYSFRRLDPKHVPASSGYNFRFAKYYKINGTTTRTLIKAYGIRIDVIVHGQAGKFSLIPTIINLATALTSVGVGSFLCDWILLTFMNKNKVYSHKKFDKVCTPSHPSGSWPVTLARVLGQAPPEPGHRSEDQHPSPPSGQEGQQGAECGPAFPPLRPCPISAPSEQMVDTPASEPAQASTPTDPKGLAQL
Sequence (P56373 1-397): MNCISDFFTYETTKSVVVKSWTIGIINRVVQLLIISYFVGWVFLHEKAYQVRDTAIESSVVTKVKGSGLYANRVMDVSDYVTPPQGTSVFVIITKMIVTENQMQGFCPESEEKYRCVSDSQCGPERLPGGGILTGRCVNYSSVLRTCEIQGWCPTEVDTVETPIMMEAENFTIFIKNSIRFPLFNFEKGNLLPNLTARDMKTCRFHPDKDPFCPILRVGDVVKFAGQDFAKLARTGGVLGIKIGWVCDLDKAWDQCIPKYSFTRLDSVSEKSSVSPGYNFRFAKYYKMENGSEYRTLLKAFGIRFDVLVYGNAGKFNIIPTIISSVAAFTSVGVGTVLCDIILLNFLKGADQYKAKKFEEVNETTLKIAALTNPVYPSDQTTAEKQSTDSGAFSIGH
Assay: Evaluation of human P2X2/3 receptor inhibitory activity (Fluo-3 fluorescence, C6BU-1 cells, α,β-methylene ATP 6 μM)
pIC50: −log10 of the molar value.
observation-type: pIC50

[[record]]
compound = "C[C@@H](Cn1c(=O)[nH]/c(=N\\c2ccc(Oc3ccccn3)cc2)n(Cc2ccc(Cl)cc2)c1=O)C(=O)O [compound represented by Formula (I)]"
observation_type = "pIC50"
readout_value = 5.96


====

Assay: clinical
Conditions: human, plasma, oral, 300 mg
observation-type: concentration at 24 h

[[record]]
smiles_input = "C[C@@H](Cn1c(=O)[nH]/c(=N\\c2ccc(Oc3ccccn3)cc2)n(Cc2ccc(Cl)cc2)c1=O)C(=O)O"
readout_value = "1840 ng/mL"

